Below, each of the molecules is paired with its reported koff value.
Biological target: human NGF (Homo sapiens, UniProt P01138)
Sequence (P01138 122-241): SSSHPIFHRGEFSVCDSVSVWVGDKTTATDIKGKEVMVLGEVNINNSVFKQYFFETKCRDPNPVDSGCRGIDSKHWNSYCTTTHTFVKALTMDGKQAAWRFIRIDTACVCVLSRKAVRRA
Assay: BIAcore screening assay of Fab library clones (koff)
Type: binding
Details: Table 3: heavy chain library clones paired with 6D5 light chain
The reply should contain only the number, in s⁻¹.

[
  {
    "molecule": "H17: heavy chain library clone, CDRH1 SEQ ID NO:42, CDRH2 SEQ ID NO:43 (antibody, V domains shown) VH: QVQLQESGPGLVKPSETLSLTCTVSGFSLIGYDASWIRQPPGKGLEWIGGIWGDGTTDYNSSVKSRVTISKDTSKNQFSLKLSSVTAADTAVYYCARGGYYYGTSYYFDYWGQGTLVTVS VL: DIQMTQSPSSLSASVGDRVTITCRASQDISNHLNWYQQKPGKAPKLLIYYISRFHSGVPSRFSGSGSGTDFTFTISSLQPEDIATYYCQQSKTLPYTFGQGTKLEIKRT",
    "measurement kind": "koff",
    "unit descriptor": "s⁻¹",
    "value": 0.00061
  }
]

## Input State, in one line, measured koff of 8L2-6D5: CDR-grafted antibody with V71K heavy chain framework substitution; template for affinity maturation (antibody, V domains shown) VH: QVQLQESGPGLVKPSETLSLTCTVSGFSLIGYDINWIRQPPGKGLEWIGMIWGDGTTDYNSALKSRVTISKDTSKNQFSLKLSSVTAADTAVYYCARGGYYYGTSYYFDYWGQGTLVTVS VL: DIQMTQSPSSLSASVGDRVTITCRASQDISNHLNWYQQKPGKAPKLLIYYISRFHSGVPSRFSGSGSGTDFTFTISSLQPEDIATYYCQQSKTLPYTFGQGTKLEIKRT
## Output 0.001
